tested on: Botrytis cinerea; test: Botrytis cinerea (gray mould), PDB microtiter plate, visual after 72 hrs; assay type: cell-based; settings: Botrytis cinerea, alone, rate 1 ppm
We begin with a simple list: items and their reported inhibition at 1 ppm.

{"molecule": "CCN(C)/C=N/c1cc(Br)c(OC2Cc3ccccc3C2)nc1C", "value units": "%", "inhibition at 1 ppm": 0}
{"molecule": "CON=C(C(=O)OC)c1ccccc1CON=C(C)c1cccc(C(F)(F)F)c1", "value units": "%", "inhibition at 1 ppm": 50}
{"molecule": "OC(Cn1cncn1)(c1ccc(F)cc1)c1ccccc1F (stereo not shown)", "value units": "%", "inhibition at 1 ppm": 0}
{"molecule": "CCN(C)/C=N/c1cc(Br)c(OC(C)c2cc(F)cc(F)c2)nc1C (stereo not shown)", "value units": "%", "inhibition at 1 ppm": 0}
